From: patent US20230234917A1

Tested system: ClbP (Escherichia coli, UniProt Q0P7K6)
Assay summary: ClbP whole cell activity (inhibition) assay, fluorogenic substrate
Type: cell-based, E. coli
# Lookup of reported IC50 keyed by entry

The examples below pair each entry with its known result.
1. CCCCCCC(F)(F)C(=O)N[C@H](CC(N)=O)C(=O)NCCc1ccc(O)cc1 : > 300 µM
2. CCCCCCCC(=O)N[C@H](CC(N)=O)C(=O)NCCc1ccc(C)cc1 : < 100 µM
3. CCCCCCCC(=O)N[C@@H]1CC(=O)NC1(O)C(=O)NCCCC (some centres unmarked) : < 100 µM

Turning to the following compound.
INPUT: Please give the documented IC50 of `NC(=O)C[C@@H](NC(=O)CCCCCCC(=O)O)C(=O)NCCc1ccccc1`
OUTPUT: > 300 µM

###

Tested system: UniProtKB Q0P7K6
Assay summary: ClbP whole cell activity (inhibition) assay, fluorogenic substrate
Assay type: cell-based, E. coli
compounds and their reported IC50

1. CCCCCCCC(=O)N[C@H](CC(=O)NC)C(=O)NCCc1ccccc1 : < 100 µM

INPUT: Recall and state the measured IC50 for `CCCCCCCC(=O)N[C@H](CN[C@@H](C)C(=O)OC)CC(N)=O` .
OUTPUT: > 300 µM

INPUT: Answer with reported IC50 of `CCCCCCCC(=O)N[C@H](CC(N)=O)C(=O)NCCc1ccccc1O`
OUTPUT: < 100 µM

INPUT: Supply measured IC50 of `CCCCCCCC(=O)N[C@H](CC(N)=O)C(=O)N(C)CCc1ccc(O)cc1` in your reply.
OUTPUT: < 100 µM

###

Tested system: ClbP (Escherichia coli)
Assay summary: ClbP whole cell activity (inhibition) assay, fluorogenic substrate
Format: cell-based, E. coli
Protocol: Whole Cell Activity Assay 1) E. coli ClbP+ were taken from a frozen stock and streaked onto BHI plates. They were grown aerobically at 37° C. overnight in the incubator. […] 4) The plate was loaded into a spectrophotometer preheated to 37° C. The fluorescence was recorded every 2 min for 46 min. […] 5) The linear portion of the fluorescence increase was 10-30 min. The rate of fluorescence increase (A.U./min) for each well in an inhibitor series was normalized to the 0 μM inhibitor condition. […]
pIC50: −log10 of the molar value.
Readout label: pIC50

Below, each entry is followed by its recorded pIC50 result.
1. NC(=O)C[C@@H](NC(=O)CCCC1CCCC1)C(=O)NCCc1ccc(O)cc1 : > 4.00
2. NC(=O)C[C@@H](NC(=O)CCCc1ccc(O)cc1)C(=O)NCCc1ccc(O)cc1 : > 4.00
3. CCCCCCCC(=O)N[C@H](CC(N)=O)[C@@H](O)CCCc1ccccc1 : > 4.00
4. CC(=O)N[C@H](CC(N)=O)C(=O)NCCc1ccccc1 : < 3.52

From here, focus on the item given below.
INPUT: Give pIC50 for the following compound: `CCCCCCCC(=O)N[C@@H](/C=C/C(=O)OCC)CC(N)=O`
OUTPUT: < 3.52

###

Tested system: Full-length WT ClbP (Escherichia coli)
pIC50: −log10 of the molar value.
pIC50 overview

Examples from the recorded data:
1) CCCCCCCC(=O)N[C@H](CC(N)=O)C(=O)NCCc1ccco1 : > 4.00
2) NC(=O)C[C@@H](NC(=O)CCCC1CCCC1)C(=O)NCCc1ccc(O)cc1 : > 4.00
3) O=C(/C=C/CC1CCCCC1)N[C@H](CC(=O)NO)C(=O)NCCc1ccc(O)cc1 : > 4.00
4) CCCCCCCC(=O)N[C@H](CC(N)=O)C(=O)NCCc1cccnc1 : > 4.00
5) CNCCCCCC(=O)N[C@H](CC(N)=O)C(=O)NCCc1ccc(O)cc1 : < 3.52
6) NC(=O)C[C@@H](NC(=O)CCC1CCCC1)C(=O)NCCc1ccccc1 : > 4.00
7) CCCCCCCC(=O)N[C@H](CC(N)=O)C(=O)N(C)CCc1ccc(O)cc1 : > 4.00
8) CCCCCCCC(=O)N[C@H](CC(N)=O)[C@@H](O)CCCc1ccccc1 : 3.52 to 4.00
9) CCCCCCCC(=O)N[C@H](CC(N)=O)C(=O)NCCc1cc(F)c(O)c(F)c1 : > 4.00
10) CCCCCCCC(=O)N[C@H](CC(N)=O)C(=O)O[C@@H](C)C(=O)OC : 3.52 to 4.00

INPUT: Tell me its pIC50 given `CCCCCCCNC(=O)[C@H](CC(N)=O)NC(=O)Oc1ccccc1` as the entry.
OUTPUT: 3.52 to 4.00

INPUT: Please give measured pIC50 of the following entry: `CCCCCCCC(=O)N[C@](C)(CC(N)=O)C(=O)NCCc1ccccc1`
OUTPUT: 3.52 to 4.00

INPUT: State its pIC50: `CCCCCCCC(=O)N[C@H](CC(N)=O)c1nnn(C(C)(C)C)n1`
OUTPUT: 3.52 to 4.00
